# System: EKVX
# protocolDescription: NCI tumour cell line growth inhibition, 48 h
The source made the active and inactive calls. Rule as the data show it: active = GI50 up to about 1.1 µM and inactive = higher.
measuredEndpoint: GI50

Solved cases below.
[
  {
    "molecule": "Cc1ccc(Nc2nc3c(s2)C(=O)c2ccccc2C3=O)cc1",
    "result": "5.14 µM (inactive)"
  },
  {
    "molecule": "CCN1CCC(O)(/C=C/c2ccc(C(C)C)cc2)C(C(=O)/C=C/c2ccc(C(C)C)cc2)C1 (centres undefined)",
    "result": "2.22 µM (inactive)"
  },
  {
    "molecule": "CN1CCC2(CC1)/C(=N/C1CCCCC1)NC(=S)N2c1ccccc1",
    "result": "> 100 µM (inactive)"
  },
  {
    "molecule": "N#CC1CCCCOCCOCCOCCOCCOCCCCCC1=O (centres undefined)",
    "result": "> 100 µM (inactive)"
  },
  {
    "molecule": "CC(=O)NC1CC2Oc3ccc(C)cc3C(C)(O2)C1O (centres undefined)",
    "result": "> 100 µM (inactive)"
  },
  {
    "molecule": "C[C@H]1CC(=O)C[C@@H]2CC[C@@H]3[C@H](CC[C@]4(C)C(OC(=O)c5cccc6c(=O)c7ccccc7[nH]c56)CC[C@@H]34)[C@]21C (some centres undefined)",
    "result": "31.1 µM (inactive)"
  },
  {
    "molecule": "Nc1ccc(C2NC(=O)Cc3c2ccc2ccccc32)cc1 (centres undefined)",
    "result": "84.7 µM (inactive)"
  },
  {
    "molecule": "C/C=C/c1c(O)c(=O)c2c(OC)cc(OC)c3c4c(OC)cc(OC)c5c(=O)c(O)c(/C=C/C)c(c1c23)c54",
    "result": "16.6 µM (inactive)"
  }
]

Respectfully, I request GI50 for each entry included below.
1. CSc1nc(NCc2ccccc2)c2cnn(COCCO)c2n1
2. O=c1[nH]c(C2CCCCC2)nc2ccc(Cl)cc12
3. CCOC(=O)C(=C=C=C(c1ccccc1)c1ccccc1)C(=O)OCC
4. NCCCCN(CCCN)C(=O)c1ccccc1
5. COc1cccc(C2c3cc4c(cc3OC(NNC(N)=O)C2C)OCO4)c1O (centres undefined)
6. CCOC(=O)CNC(=O)C(C)NC(=O)C(NC(=O)CC(c1ncc[nH]1)c1ncc[nH]1)C(C)CC (centres undefined)

1. 21.4 µM (inactive)
2. > 100 µM (inactive)
3. 26.7 µM (inactive)
4. > 100 µM (inactive)
5. 8.26 µM (inactive)
6. > 100 µM (inactive)

Values compiled from ChEMBL document CHEMBL1201862.
